Cited source for all entries: ChEMBL document CHEMBL1142579

Catalogue of GI50 readings, one per entry.
Test system: NCI-H460
Assay: Cytotoxicity against human NCI-H460 cells
Type: functional
property: GI50 (µg/mL)

                               smiles_entry  property  qualifier  meas_value
0  O=C1N[C@H]2[C@@H]3OP(=O)([O-])O[C@@H]3[C@@H](O)C[C@@H]2c2cc3c(cc21)OCO3.[Li+]      GI50          >           1
1  O=C1N[C@H]2[C@@H]3OP(=O)([O-])O[C@@H]3[C@@H](O)C[C@@H]2c2cc3c(c(O)c21)OCO3.[K+]      GI50          >           1
2  O=C1N[C@@H]2C(=C[C@H](O)[C@@H](O)[C@H]2O)c2cc3c(cc21)OCO3      GI50          =       0.053
3  O=C1N[C@H]2[C@H](O)[C@H](O)[C@@H](O)C[C@@H]2c2cc3c(cc21)OCO3      GI50          =       0.043

* * *

Catalogue of GI50 values
Test system: DU-145
Assay: Cytotoxicity against human DU145 cells
Type: functional
property: GI50

>>> print(df.to_string())
                               smiles_entry  meas_value
0  O=C1N[C@H]2[C@@H]3OP(=O)([O-])O[C@@H]3[C@@H](O)C[C@@H]2c2cc3c(cc21)OCO3.[Na+]  > 10 µg/mL
1  O=C1N[C@@H]2C(=C[C@H](O)[C@H]3OP(=O)([O-])O[C@H]32)c2cc3c(cc21)OCO3.[Li+]   > 1 µg/mL
2  O=C1N[C@H]2[C@@H]3OP(=O)([O-])O[C@@H]3[C@@H](O)C[C@@H]2c2cc3c(cc21)OCO3.[Li+]   > 1 µg/mL

* * *

System: DU-145
Experiment: Cytotoxicity against human DU145 cells
Assay type: functional
GI50 for assorted compounds
property: GI50

                               smiles_entry  meas_value
0  O=C1N[C@H]2[C@@H]3OP(=O)([O-])O[C@@H]3[C@@H](O)C[C@@H]2c2cc3c(c(O)c21)OCO3.[Li+]   > 1 µg/mL
1  O=C1N[C@H]2[C@@H]3OP(=O)([O-])O[C@@H]3[C@@H](O)C[C@@H]2c2cc3c(cc21)OCO3.[K+]   > 1 µg/mL
2  O=C1N[C@@H]2C(=C[C@H](O)[C@H]3OP(=O)([O-])O[C@H]32)c2cc3c(cc21)OCO3.[K+]   > 1 µg/mL

* * *

Test system: NCI-H460
Assay: Cytotoxicity against human NCI-H460 cells
Type: functional
Some compounds, each annotated with its measured GI50.
property: GI50

In [3]: df
Out[3]:
                               smiles_entry    meas_value
0  O=C1N[C@@H]2C(=C[C@H](O)[C@H]3OP(=O)([O-])O[C@H]32)c2cc3c(cc21)OCO3.[Li+]     > 1 µg/mL
1  O=C1N[C@@H]2C(=C[C@H](O)[C@H]3OP(=O)([O-])O[C@H]32)c2cc3c(cc21)OCO3.[K+]     > 1 µg/mL
2  O=C1N[C@H]2[C@H](O)[C@H](O)[C@@H](O)C[C@@H]2c2cc3c(c(O)c21)OCO3  0.0092 µg/mL
3  O=C1N[C@H]2[C@@H]3OP(=O)([O-])O[C@@H]3[C@@H](O)C[C@@H]2c2cc3c(cc21)OCO3.[Na+]    > 10 µg/mL
4  O=C1N[C@H]2[C@@H]3OP(=O)([O-])O[C@@H]3[C@@H](O)C[C@@H]2c2cc3c(cc21)OCO3.[K+]     > 1 µg/mL
5  O=C1N[C@H]2[C@@H]3OP(=O)([O-])O[C@@H]3[C@@H](O)C[C@@H]2c2cc3c(c(O)c21)OCO3.[Na+]     7.8 µg/mL
